Just for reference, the supplement of paper PMC10567573 is where these values come from.

B1: NEK8 (parent)
chain: VVGTPCYISPELCEGKPYNQKSDI

variants of: B1; test: protein stability index of a GFP-peptide fusion (GPS, HEK-293T) (PSI 1-6); higher = more stable; settings: c terminus: a fixed tail appended;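 also: lentivirally expressed fusions sorted by FACS into six bins by GFP to DsRed ratio, PSI derived from sequencing read proportions per bin multiplied by bin number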
# binarize protein stability index: threshold 3 inclusive, high side 1, low side 0

VVGTPCYISPELCEGKPDNQKSDI [Y18D]: 1
VVGTPCYISPELCEGKPNNQKSDI [Y18N]: 1
VVGTPCYISPELREGKPYNQKSDI [C13R]: 1
VVGTPCYISPELCEGKPYNQKSDP [I24P]: 1
VVGTPCYISPELCEGKPYNQKSPI [D23P]: 0
VVGTPCYISPELCEGKPYIQKSDI [N19I]: 0
VVGTPCYISPELCEGKPYNQKSDA [I24A]: 1
VVGTPCYISPELCEGKLYNQKSDI [P17L]: 0
VVGTPCYSSPELCEGKPYNQKSDI [I8S]: 1
VVGTPCYISPELCEGKPYSQKSDI [N19S]: 1
VVGTPLYISPELCEGKPYNQKSDI [C6L]: 1
NVGTPCYISPELCEGKPYNQKSDI [V1N]: 1
VVGTPCYWSPELCEGKPYNQKSDI [I8W]: 0
VVGTPCYISPELLEGKPYNQKSDI [C13L]: 0
VVGTPCYISPELCEGFPYNQKSDI [K16F]: 0
VVGTPCYISPELCEGKPYNQKMDI [S22M]: 0
VLGTPCYISPELCEGKPYNQKSDI [V2L]: 1
VVGTPCYISPELCEGKPYNQGSDI [K21G]: 0
VVGTPCYISPELCEYKPYNQKSDI [G15Y]: 0
VVGTPHYISPELCEGKPYNQKSDI [C6H]: 0
VVGVPCYISPELCEGKPYNQKSDI [T4V]: 0
VVPTPCYISPELCEGKPYNQKSDI [G3P]: 1
VAGTPCYISPELCEGKPYNQKSDI [V2A]: 1
VVGTPCYISPELCEGRPYNQKSDI [K16R]: 0
VVGTPCYISPELCQGKPYNQKSDI [E14Q]: 0
VVGTPCDISPELCEGKPYNQKSDI [Y7D]: 1
VVGTPCYISPELCEGKPMNQKSDI [Y18M]: 1
VVDTPCYISPELCEGKPYNQKSDI [G3D]: 1
YVGTPCYISPELCEGKPYNQKSDI [V1Y]: 0
VVGTPCYISPELCEGKPYAQKSDI [N19A]: 0
VVGTPCYISPELCEGKPYNQKSDT [I24T]: 1
VVGTPCYISPRLCEGKPYNQKSDI [E11R]: 0
VGGTPCYISPELCEGKPYNQKSDI [V2G]: 1
VVGTPCYISPELCEHKPYNQKSDI [G15H]: 0
VVGTPCYISPEVCEGKPYNQKSDI [L12V]: 0
VVFTPCYISPELCEGKPYNQKSDI [G3F]: 0
VVGSPCYISPELCEGKPYNQKSDI [T4S]: 1
VVGTPCYISPELCEGKPYNQISDI [K21I]: 0
VVGTPCYISPELPEGKPYNQKSDI [C13P]: 0
VVGTPCYISPILCEGKPYNQKSDI [E11I]: 0
SVGTPCYISPELCEGKPYNQKSDI [V1S]: 1
VVGTPCYISPELCEGKWYNQKSDI [P17W]: 0
VVGTPCYISPELCSGKPYNQKSDI [E14S]: 0
